Source listed as ChEMBL document CHEMBL2218924.

Biological target: Ribosomal protein S6 kinase alpha-4 (Homo sapiens)
Settings: at 1 µM

structure smiles: COc1cc2ncnc(Nc3ccc(NC(=O)c4ccccc4)cc3)c2cc1OC
residual activity [%]: 106

structure smiles: CCN(CC)CCCCN1c2ccccc2Oc2ccc(Cl)cc21
residual activity [%]: 111

structure smiles: Nc1n[nH]c2nnc(-c3c(-c4ccccc4)nn4ccccc34)cc12
residual activity [%]: 93

structure smiles: O=C1NC(=O)/C(=C\c2ccc3nccnc3c2)S1
residual activity [%]: 89

structure smiles: O=[N+]([O-])c1ccc(-c2nc(-c3ccc(F)cc3)c(-c3ccncc3)[nH]2)cc1
residual activity [%]: 87

structure smiles: N#CC(C#N)=C(N)/C(C#N)=C/c1ccc(O)cc1
residual activity [%]: 91

====

Target: Dual specificity protein kinase CLK3 (Homo sapiens)
Details: at 1 µM

structure smiles: Cc1cc(Nc2nc(-c3ccccc3)nc3ccccc23)n[nH]1
residual activity [%]: 53

structure smiles: COc1ccc(C(=O)Nc2sc3c(c2C(N)=O)CCCC3)cc1OC
residual activity [%]: 50

structure smiles: Cc1ccc(NC2=CC(=O)c3sc(C)nc3C2=O)cc1
residual activity [%]: 95

structure smiles: O=C1NC(=O)c2cc(Nc3ccc(F)cc3)c(Nc3ccc(F)cc3)cc21
residual activity [%]: 79

structure smiles: COc1cc2ncnc(N3CCN(C(=O)Nc4ccc(Oc5ccccc5)cc4)CC3)c2cc1OC
residual activity [%]: 64

structure smiles: c1ccc(-c2n[nH]c3c2oc2ccccc23)cc1
residual activity [%]: 86

structure smiles: Oc1c2ccccc2c2c3c(cccc13)N=N2
residual activity [%]: 72

structure smiles: COc1cc2ncnc(Nc3ccc(Oc4ccccc4)cc3)c2cc1OC
residual activity [%]: 82

structure smiles: COc1cc2ncnc(Nc3ccc(NC(=O)c4ccccc4)cc3)c2cc1OC
residual activity [%]: 83

structure smiles: Cc1nc(-c2ccccc2)c(-c2ccncc2)o1
residual activity [%]: 82

structure smiles: CN(C)c1ccc(/C=C2\C(=O)Nc3ccccc32)cc1
residual activity [%]: 77

====

Target: Insulin-like growth factor 1 receptor (Homo sapiens) (UniProt P08069)
Sequence (P08069 31-736 limits assumed): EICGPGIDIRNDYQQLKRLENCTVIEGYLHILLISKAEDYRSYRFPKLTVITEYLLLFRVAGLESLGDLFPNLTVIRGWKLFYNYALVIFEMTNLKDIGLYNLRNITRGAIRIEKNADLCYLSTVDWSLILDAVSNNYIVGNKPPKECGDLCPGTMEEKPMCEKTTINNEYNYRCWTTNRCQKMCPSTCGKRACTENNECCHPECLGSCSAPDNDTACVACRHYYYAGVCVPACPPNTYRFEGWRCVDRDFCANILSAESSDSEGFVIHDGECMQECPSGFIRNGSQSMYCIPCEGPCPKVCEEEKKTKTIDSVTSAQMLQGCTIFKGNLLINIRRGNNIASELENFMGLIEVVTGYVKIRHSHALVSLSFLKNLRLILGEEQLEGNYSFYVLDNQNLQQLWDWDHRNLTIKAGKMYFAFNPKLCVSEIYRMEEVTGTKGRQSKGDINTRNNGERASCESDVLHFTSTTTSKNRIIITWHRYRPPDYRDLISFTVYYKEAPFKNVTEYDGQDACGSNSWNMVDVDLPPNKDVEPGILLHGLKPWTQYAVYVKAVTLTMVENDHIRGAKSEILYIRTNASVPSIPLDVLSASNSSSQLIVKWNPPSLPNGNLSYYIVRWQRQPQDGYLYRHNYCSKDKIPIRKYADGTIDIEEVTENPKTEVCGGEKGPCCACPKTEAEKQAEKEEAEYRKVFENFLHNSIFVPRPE
Sequence (P08069 741-1367 limits assumed): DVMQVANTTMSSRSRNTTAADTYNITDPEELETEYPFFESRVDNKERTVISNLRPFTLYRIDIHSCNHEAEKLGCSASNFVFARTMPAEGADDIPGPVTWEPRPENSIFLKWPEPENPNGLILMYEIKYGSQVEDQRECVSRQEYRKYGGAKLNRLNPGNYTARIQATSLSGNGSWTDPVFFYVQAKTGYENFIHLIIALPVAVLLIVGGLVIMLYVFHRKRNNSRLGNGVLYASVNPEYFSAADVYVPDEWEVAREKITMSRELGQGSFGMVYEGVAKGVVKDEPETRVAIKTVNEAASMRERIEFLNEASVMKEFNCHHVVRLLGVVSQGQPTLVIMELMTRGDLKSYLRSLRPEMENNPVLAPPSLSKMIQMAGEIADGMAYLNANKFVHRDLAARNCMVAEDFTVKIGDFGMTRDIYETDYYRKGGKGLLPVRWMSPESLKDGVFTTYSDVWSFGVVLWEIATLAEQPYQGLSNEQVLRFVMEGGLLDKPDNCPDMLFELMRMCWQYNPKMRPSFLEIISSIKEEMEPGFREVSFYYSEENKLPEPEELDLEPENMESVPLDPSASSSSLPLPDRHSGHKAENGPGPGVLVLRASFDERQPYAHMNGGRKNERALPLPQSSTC
Conditions: at 10 µM
measure: residual activity (%)

compound: Ic1cccc(CSc2nnc(-c3ccncc3)o2)c1
readout number: 95
//
compound: CC#CC(=O)Nc1cc2c(Nc3ccc(F)c(Cl)c3)ncnc2cn1
readout number: 93
//
compound: NC(=O)c1ccc2[nH]c(-c3ccc(Oc4ccc(Cl)cc4)cc3)nc2c1
readout number: 85
//
compound: Cc1nc2cc3nc(-c4cccs4)cnc3cc2n1C
readout number: 106
//
compound: Nc1n[nH]c2nnc(-c3c(-c4ccccc4)nn4ccccc34)cc12
readout number: 76
//
compound: CC(=O)O/N=C1\C(=C2\C(=O)Nc3cc(Br)ccc32)Nc2ccccc21
readout number: 100
//
compound: O=C1Nc2ccccc2/C1=C1/Nc2ccccc2/C1=N\OCCC(O)CO (stereo unspecified)
readout number: 10
//
compound: Cn1cnc2cc3c(Nc4cccc(Br)c4)ncnc3cc21
readout number: 90
//
compound: c1ccc2c(-c3ccncc3)c[nH]c2c1
readout number: 79
//
compound: Cc1cccc(-c2[nH]c(C(C)(C)C)nc2-c2ccc3c(c2)OCO3)n1
readout number: 96
//
compound: N#C/C(=C(\N)Sc1ccc(N)cc1)c1ccccc1C(F)(F)F
readout number: 102

====

Target: CDK9/cyclin T1 (Homo sapiens) (UniProt O60563+P50750)
Conditions: at 10 µM
Class boundaries, taken from values of residual activity, are as follows: bucket A = under 40%, bucket B = from 40% up to 90%, bucket C = 90% and over

structure smiles: Cn1cnc2cc3c(Nc4cccc(Br)c4)ncnc3cc21
answer label: bucket C
//
structure smiles: O=c1c2ccccc2[nH]c(=S)n1CCN1CCC(=C(c2ccc(F)cc2)c2ccc(F)cc2)CC1
answer label: bucket C
//
structure smiles: CO[C@H]1[C@@H](OC)C[C@H](C)[C@@H](OC)C2=CC(=O)C=C(NC(=O)/C(C)=C/C=C/[C@H](OC)[C@@H](OC(N)=O)/C(C)=C/[C@@H]1C)C2=O
answer label: bucket B
//
structure smiles: Oc1ccc(Nc2nc(-c3ccc(Cl)cc3)cs2)cc1
answer label: bucket C
//
structure smiles: Nc1ccc2ncnc(NCCc3ccc(Oc4ccccc4)cc3)c2c1
answer label: bucket C
//
structure smiles: O=C1NC(=O)/C(=C/c2ccc3c(c2)OC(F)(F)O3)S1
answer label: bucket B
//
structure smiles: O=C1NC(=O)/C(=C\c2ccc3nccnc3c2)S1
answer label: bucket A
//
structure smiles: CCOc1cc2ncnc(Nc3cccc(Br)c3)c2cc1OCC
answer label: bucket B
//
structure smiles: C[C@@H](N)[C@H]1CC[C@H](C(=O)Nc2ccncc2)CC1
answer label: bucket B
//
structure smiles: N#Cc1cnc2cnc(NCc3cccnc3)cc2c1Nc1ccc(F)c(Cl)c1
answer label: bucket C
//
structure smiles: O=C(Nc1cccc(Nc2cc(Nc3cccc(C(F)(F)F)c3)ncn2)c1)C1CC1
answer label: bucket B
//
structure smiles: c1ccc2c(-c3ccncc3)c[nH]c2c1
answer label: bucket A
//
structure smiles: COc1cc2ncnc(N3CCN(C(=O)Nc4ccc(Oc5ccccc5)cc4)CC3)c2cc1OC
answer label: bucket B
//
structure smiles: O=Nc1c(-c2c(O)[nH]c3ccccc23)[nH]c2ccccc12
answer label: bucket A
//
structure smiles: Cc1cncc2cccc(S(=O)(=O)N3CCCN(C(=O)CN)C[C@H]3C)c12
answer label: bucket B
//
structure smiles: O=[N+]([O-])c1ccc(-c2nc(-c3ccc(F)cc3)c(-c3ccncc3)[nH]2)cc1
answer label: bucket A
//
structure smiles: Nc1nc(Nc2ccc(S(N)(=O)=O)cc2)nn1C(=S)Nc1c(F)cccc1F
answer label: bucket A
//
structure smiles: CN(C)CCCn1cc(C2=C(c3c[nH]c4ccccc34)C(=O)NC2=O)c2ccccc21
answer label: bucket A

====

Each entry below lists one item and its recorded residual activity value.
Molecular target: Serine/threonine-protein kinase pim-2 (Homo sapiens) (UniProt Q9P1W9)
Sequence (Q9P1W9 whole entry, looked up): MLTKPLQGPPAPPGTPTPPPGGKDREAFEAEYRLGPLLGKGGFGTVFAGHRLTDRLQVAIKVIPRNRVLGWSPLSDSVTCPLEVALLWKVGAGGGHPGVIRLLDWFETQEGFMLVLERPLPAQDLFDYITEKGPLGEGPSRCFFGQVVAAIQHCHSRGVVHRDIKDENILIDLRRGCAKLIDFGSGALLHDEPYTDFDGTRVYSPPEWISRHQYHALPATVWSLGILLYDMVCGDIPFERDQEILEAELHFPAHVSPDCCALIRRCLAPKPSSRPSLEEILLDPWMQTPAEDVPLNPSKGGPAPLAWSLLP
Settings: at 1 µM

molecule: O=C(O)c1ccc2c3c1cccc3c(=O)n1c3ccccc3nc21
test target: Serine/threonine-protein kinase pim-2 (Homo sapiens) (UniProt Q9P1W9)
residual activity, %: 14
//
molecule: O=c1c2ccccc2[nH]c(=S)n1CCN1CCC(=C(c2ccc(F)cc2)c2ccc(F)cc2)CC1
test target: Serine/threonine-protein kinase pim-2 (Homo sapiens) (UniProt Q9P1W9)
residual activity, %: 75
//
molecule: O=C1NC(=O)/C(=C/c2ccc3c(c2)OC(F)(F)O3)S1
test target: Serine/threonine-protein kinase pim-2 (Homo sapiens) (UniProt Q9P1W9)
residual activity, %: 58
//
molecule: N#C/C(=C(\N)Sc1ccc(N)cc1)c1ccccc1C(F)(F)F
test target: Serine/threonine-protein kinase pim-2 (Homo sapiens) (UniProt Q9P1W9)
residual activity, %: 130
//
molecule: O=C1NC(=O)/C(=C\c2ccc3nccnc3c2)S1
test target: Serine/threonine-protein kinase pim-2 (Homo sapiens) (UniProt Q9P1W9)
residual activity, %: 75
//
molecule: O=Nc1c(-c2c(O)[nH]c3ccccc23)[nH]c2ccccc12
test target: Serine/threonine-protein kinase pim-2 (Homo sapiens) (UniProt Q9P1W9)
residual activity, %: 68
//
molecule: CO[C@H]1[C@@H](OC)C[C@H](C)[C@@H](OC)C2=CC(=O)C=C(NC(=O)/C(C)=C/C=C/[C@H](OC)[C@@H](OC(N)=O)/C(C)=C/[C@@H]1C)C2=O
test target: Serine/threonine-protein kinase pim-2 (Homo sapiens) (UniProt Q9P1W9)
residual activity, %: 99
//
molecule: CCOc1cc2ncnc(Nc3cccc(Br)c3)c2cc1OCC
test target: Serine/threonine-protein kinase pim-2 (Homo sapiens) (UniProt Q9P1W9)
residual activity, %: 92
//
molecule: CO[C@H]1C[C@@H]2CC[C@@H](C)[C@@](O)(O2)C(=O)C(=O)N2CCCC[C@H]2C(=O)O[C@H]([C@H](C)C[C@@H]2CC[C@@H](O)[C@H](OC)C2)CC(=O)[C@H](C)/C=C(\C)[C@@H](O)[C@@H](OC)C(=O)[C@H](C)C[C@H](C)/C=C/C=C/C=C/1C
test target: Serine/threonine-protein kinase pim-2 (Homo sapiens) (UniProt Q9P1W9)
residual activity, %: 110
//
molecule: Cc1nc2cc3nc(-c4cccs4)cnc3cc2n1C
test target: Serine/threonine-protein kinase pim-2 (Homo sapiens) (UniProt Q9P1W9)
residual activity, %: 90
//
molecule: COc1ccc(C(=O)Nc2sc3c(c2C(N)=O)CCCC3)cc1OC
test target: Serine/threonine-protein kinase pim-2 (Homo sapiens) (UniProt Q9P1W9)
residual activity, %: 87
//
molecule: Ic1cccc(CSc2nnc(-c3ccncc3)o2)c1
test target: Serine/threonine-protein kinase pim-2 (Homo sapiens) (UniProt Q9P1W9)
residual activity, %: 93
//
molecule: O=C1Nc2ccccc2/C1=C1/Nc2ccccc2/C1=N\OCCC(O)CO (stereo unspecified)
test target: Serine/threonine-protein kinase pim-2 (Homo sapiens) (UniProt Q9P1W9)
residual activity, %: 98
//
molecule: Cc1cc(Nc2nc(-c3ccccc3)nc3ccccc23)n[nH]1
test target: Serine/threonine-protein kinase pim-2 (Homo sapiens) (UniProt Q9P1W9)
residual activity, %: 126
//
molecule: O=C1Nc2ccc(Br)cc2/C1=C\c1cc2c([nH]1)CCCC2
test target: Serine/threonine-protein kinase pim-2 (Homo sapiens) (UniProt Q9P1W9)
residual activity, %: 129
//
molecule: COc1cc2ncnc(Nc3ccc(O)c(Br)c3)c2cc1OC
test target: Serine/threonine-protein kinase pim-2 (Homo sapiens) (UniProt Q9P1W9)
residual activity, %: 78
//
molecule: O=C1Nc2cc(Br)ccc2/C1=C1/Nc2ccccc2/C1=N\O
test target: Serine/threonine-protein kinase pim-2 (Homo sapiens) (UniProt Q9P1W9)
residual activity, %: 106
//
molecule: CNc1cc2c(Nc3cccc(Br)c3)ncnc2cn1
test target: Serine/threonine-protein kinase pim-2 (Homo sapiens) (UniProt Q9P1W9)
residual activity, %: 86
//
molecule: Oc1ccc(Nc2nc(-c3ccc(Cl)cc3)cs2)cc1
test target: Serine/threonine-protein kinase pim-2 (Homo sapiens) (UniProt Q9P1W9)
residual activity, %: 126
//
molecule: CCC(=O)Nc1ccc2ncnc(Nc3cccc(Br)c3)c2c1
test target: Serine/threonine-protein kinase pim-2 (Homo sapiens) (UniProt Q9P1W9)
residual activity, %: 104
//
molecule: c1ccc(-c2n[nH]c3c2oc2ccccc23)cc1
test target: Serine/threonine-protein kinase pim-2 (Homo sapiens) (UniProt Q9P1W9)
residual activity, %: 83
